assay: Solubility assay (kinetic solubility, PBS pH 7); assay type: physicochemical; conditions: pH 7, aqueous buffer, kinetic from dmso stock, pH 7, PBS; read-out: Solubility
Positions of bridges follow the written chain, without caps; N, C: chain ends. Non-standard residues stand in square brackets, D forms with d. Residues, ends and D or L forms follow the SMILES beside them. Lys(N3) = [N-]=[N+]=NCCCC[C@H](N)C(=O)O; R8 = C=CCCCCCC[C@@](C)(N)C(=O)O; Cba = N[C@@H](CC1CCC1)C(=O)O; S5 = C=CCCC[C@](C)(N)C(=O)O; βAla = NCCC(=O)O
As shown below, each of these compounds has a reported solubility kinetic value.

# example entries with known answers
CC(=O)N[C@@H](CCCCN=[N+]=[N-])C(=O)NCCC(=O)N[C@@H](CC(C)C)C(=O)N[C@H](C(=O)N[C@@H](Cc1ccccc1)C(=O)N[C@]1(C)CCCCCCC=CCCC[C@@](C)(C(=O)N[C@@H](CO)C(=O)N[C@@H](C)C(=O)N[C@@H](C)C(N)=O)NC(=O)[C@H](CC2CCC2)NC(=O)[C@@H](C)NC(=O)[C@H](C)NC(=O)[C@H](Cc2c[nH]c3ccccc23)NC(=O)[C@H](Cc2ccc(O)cc2)NC(=O)[C@H](CCC(=O)O)NC1=O)[C@@H](C)O [MP-474] (Ac-[Lys(N3)][βAla]LTF[R8]EYWA[dA][Cba][S5]SAA-NH2; staple 6-13)	156 µM
CC(=O)N[C@@H](CCCCN=[N+]=[N-])C(=O)NCCC(=O)N[C@@H](CC(C)C)C(=O)N[C@H](C(=O)N[C@@H](Cc1ccccc1)C(=O)N[C@]1(C)CCCCCCC=CCCC[C@@](C)(C(=O)N[C@H](C)C(=O)N[C@@H](C)C(=O)N[C@@H](C)C(N)=O)NC(=O)[C@H](CC2CCC2)NC(=O)[C@H](CCC(N)=O)NC(=O)[C@H](C)NC(=O)[C@H](Cc2c[nH]c3ccccc23)NC(=O)[C@H](Cc2ccc(O)cc2)NC(=O)[C@H](CCC(=O)O)NC1=O)[C@@H](C)O [MP-475] (Ac-[Lys(N3)][βAla]LTF[R8]EYWAQ[Cba][S5][dA]AA-NH2; staple 6-13)	17 µM
CC(=O)N[C@@H](CC(C)C)C(=O)N[C@H](C(=O)N[C@@H](Cc1ccccc1)C(=O)N[C@]1(C)CCCCCCC=CCCC[C@@](C)(C(=O)N[C@@H](CCCNC(=N)N)C(=O)N[C@@H](C)C(=O)N[C@@H](C)C(N)=O)NC(=O)[C@H](CC2CCC2)NC(=O)[C@H](CC(C)C)NC(=O)[C@H](CCC(N)=O)NC(=O)[C@H](Cc2c[nH]c3ccccc23)NC(=O)[C@H](Cc2ccc(O)cc2)NC(=O)[C@H](CCC(=O)O)NC1=O)[C@@H](C)O [MP-196] (Ac-LTF[R8]EYWQL[Cba][S5]RAA-NH2; staple 4-11)	3 µM

Pending compound:
Input: Return reported solubility kinetic; argument: CC(=O)N[C@@H](CCCCN=[N+]=[N-])C(=O)NCCC(=O)N[C@@H](CCC(=O)O)C(=O)N[C@H](C(=O)N[C@@H](Cc1ccccc1)C(=O)N[C@]1(C)CCCCCCC=CCCC[C@@](C)(C(=O)N[C@@H](CO)C(=O)N[C@@H](C)C(=O)N[C@@H](C)C(N)=O)NC(=O)[C@H](CC2CCC2)NC(=O)[C@H](CCC(N)=O)NC(=O)[C@H](C)NC(=O)[C@H](Cc2c[nH]c3ccccc23)NC(=O)[C@H](Cc2ccc(O)cc2)NC(=O)[C@H](CCC(=O)O)NC1=O)[C@@H](C)O [MP-178]
Output: 169 µM
